system: Cobetia marina; test: Antibacterial activity against Cobetia marina ATCC 25374 after 24 hrs by microtiter broth dilution method; format: functional; details: Cobetia marina, ATCC 25374, 24 h; read-out: MIC
Below is a list of entries, each paired with its recorded MIC value.

{"Compound": "COc1cc(C)c2c(c1)C=CC(C)(CC(=O)/C=C(\\C)CCCC(C)[C@@H](O)C(=O)C=C(C)C)O2 (some centres undefined)", "Assayed Target": "Cobetia marina", "Reading Qualifier": ">", "MIC (mg/L)": 100}
{"Compound": "COc1cc(C)c(O)c(C/C=C(\\C)CC(=O)/C=C(/C)CCCC(C)C(O)C(=O)C=C(C)C)c1 (centres undefined)", "Assayed Target": "Cobetia marina", "Reading Qualifier": ">", "MIC (mg/L)": 100}
{"Compound": "COc1cc(C)c(O)c(C/C=C(\\C)CC(O)/C=C(\\C)CCCC(C)C(=O)C(O)C=C(C)C)c1 (centres undefined)", "Assayed Target": "Cobetia marina", "Reading Qualifier": "=", "MIC (mg/L)": 1}
{"Compound": "COc1cc(C)c(O)c(C/C=C(\\C)CC(=O)/C=C(/C)CCCC(C)C(=O)C(O)C=C(C)C)c1 (centres undefined)", "Assayed Target": "Cobetia marina", "Reading Qualifier": "=", "MIC (mg/L)": 0.5}
